This collection of values is drawn from patent US9850283B2.

Each record here notes measured pIC50.
target: Human PD-L1/PD-1 (Homo sapiens, UniProt Q9NZQ7); construct: made in house; host or cells: HEK293T; assay: HTRF PD-1-Ig/PD-L1-His binding assay (human PD-L1); details: cluster symbol; read-out: HTRF IC50 cluster
Sequence (Q9NZQ7 with tags, fused parts or gaps): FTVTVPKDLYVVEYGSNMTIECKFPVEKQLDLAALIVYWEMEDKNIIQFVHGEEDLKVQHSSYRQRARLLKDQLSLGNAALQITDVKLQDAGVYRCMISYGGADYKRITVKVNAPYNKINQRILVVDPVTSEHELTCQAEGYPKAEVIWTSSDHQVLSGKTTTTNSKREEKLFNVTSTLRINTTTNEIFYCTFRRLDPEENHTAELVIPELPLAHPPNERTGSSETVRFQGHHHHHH
pIC50: −log10 of the molar value. Positions of bridges follow the written chain, without caps; N, C: chain ends. Non-standard residues stand in square brackets, D forms with d. Residues, ends and D or L forms follow the SMILES beside them. ξ: configuration not given here. NMeF = CN[C@@H](Cc1ccccc1)C(=O)O; NMeNle = CCCC[C@H](NC)C(=O)O; NMeS = CN[C@@H](CO)C(=O)O; dAze = O=C(O)[C@H]1CCN1; ξC = NC(CS)C(=O)O; Sar = CNCC(=O)O

The reported pIC50 of the compound CCCC[C@H]1C(=O)N(C)[C@@H](CCCC)C(=O)N[C@@H](CCCNC(=N)N)C(=O)NC(C(=O)NCC(N)=O)CSCC(=O)N[C@@H](Cc2ccc(O)cc2)C(=O)N(C)[C@@H](CO)C(=O)N[C@@H](CC(N)=O)C(=O)N2CCC[C@H]2C(=O)N[C@@H](Cc2cnc[nH]2)C(=O)N[C@@H](CC(C)C)C(=O)N2CCC[C@H]2C(=O)N[C@@H](Cc2c[nH]c3ccccc23)C(=O)N[C@@H](CO)C(=O)N[C@@H](Cc2c[nH]c3ccccc23)C(=O)N1C (stereo partly drawn) [Example 9038] ({CH2CO}-Y[NMeS]NPHLPWSW[NMeNle][NMeNle]R[ξC]G-NH2; thioether N-14) was 7.52 to 8.17

Item: `C=CCCCC[C@H]1C(=O)N(C)[C@@H](CCCCC=C)C(=O)N[C@@H](CCCNC(=N)N)C(=O)N[C@H](C(=O)NCC(N)=O)CSCC(=O)N[C@@H](Cc2ccccc2)C(=O)N(C)[C@@H](C)C(=O)N[C@@H](CC(N)=O)C(=O)N2CCC[C@H]2C(=O)N[C@@H](Cc2cnc[nH]2)C(=O)N[C@@H](CC(C)C)C(=O)N(C)CC(=O)N[C@@H](Cc2c[nH]c3ccccc23)C(=O)N[C@@H](CO)C(=O)N[C@@H](Cc2c[nH]c3ccccc23)C(=O)N1C` | pIC50: 7.52 to 8.17

We next turn to a different compound, shown below.
Short answer for CCCC[C@H]1C(=O)N(C)CC(=O)N[C@@H](CC(=O)O)C(=O)N[C@@H](C(C)C)C(=O)N(C)[C@@H](Cc2ccccc2)C(=O)N[C@@H](Cc2ccc(O)cc2)C(=O)N2CC[C@@H]2C(=O)N[C@@H](Cc2c[nH]c3ccccc23)C(=O)N[C@@H](Cc2ccc(O)cc2)C(=O)N[C@@H](CC(C)C)C(=O)N[C@H](C(=O)NCC(N)=O)CSCC(=O)N[C@@H](Cc2ccccc2)C(=O)N(C)[C@@H](Cc2ccccc2)C(=O)N1C [Example 3577] ({CH2CO}-F[NMeF][NMeNle][Sar]DV[NMeF]Y[dAze]WYLCG-NH2; thioether N-13) : pIC50 was 8.17 to 9.41
